system: M14 melanoma; assay: NCI-60 one-dose screen, 48 h; conditions: 10 µM
The panel holds about 83,000 compounds, 20% with a hit somewhere; the sample as a whole holds those more often. Calls of active or inactive are those of the source. Rule for the calls: active = growth percent below 10; inactive = the rest.
Outcomes: active, inactive

{"compound": "O=C(CNc1nc(-c2ccccc2)cs1)Nc1ccc(Cl)cc1", "classification": "active"}
{"compound": "Cc1ccc(-c2nc(Nc3ccccc3C(=O)O)c3ccccc3n2)cc1", "classification": "inactive"}
{"compound": "CC1=C(C(=O)OC(C)C)C(c2ccc(O)cc2)NC(=S)N1 (centres undefined)", "classification": "inactive"}
{"compound": "Cc1ccc([N+](=O)[O-])c(C(=O)Nc2ccc(-c3ccc4c(c3)NC(=O)/C4=C\\c3ccc[nH]3)cc2)c1", "classification": "inactive"}

---

tested on: PC-3 prostate; experiment: NCI-60 one-dose screen, 48 h (100 = growth as untreated, 0 = no growth, -100 = all killed); conditions: 10 µM
Compounds without any hit were thinned out: in the full panel of roughly 83,000, 20% have a hit.
readout.label: growth (%)

{"compound": "COc1ccc(CN2[C@H](C(=O)NCc3ccc(C(=O)NO)cc3)Cc3c([nH]c4ccccc34)[C@H]2C2CC2)cc1", "readout.label": "growth", "scale.unit": "%", "experimental.result": 54.6}
{"compound": "C#Cc1ccc(S(=O)(=O)Nc2cccc(-c3csc(NC(C)=O)n3)c2)cc1", "readout.label": "growth", "scale.unit": "%", "experimental.result": 62.3}
{"compound": "O=c1oc2ccccc2cc1-c1csc(N=Nc2c(O)[nH]c3ccc(Br)cc23)n1", "readout.label": "growth", "scale.unit": "%", "experimental.result": 89.1}
{"compound": "COc1ccc(OC)c(/C=N/NC(=O)c2ccc3nc(-c4ccc(Cl)cc4)[nH]c3c2)c1", "readout.label": "growth", "scale.unit": "%", "experimental.result": 41.5}
{"compound": "COc1ccc(C(=O)/C=C/c2ccc(Cl)c(C(F)(F)F)c2)cc1S(N)(=O)=O", "readout.label": "growth", "scale.unit": "%", "experimental.result": -48.2}
{"compound": "NS(=O)(=O)c1ccc(NC(=O)CSc2ccc(-c3ccc(Cl)cc3)nn2)c(Br)c1", "readout.label": "growth", "scale.unit": "%", "experimental.result": 35.7}
{"compound": "CC1CC(c2ccc(N(C)C)cc2)=NN1c1nc(O)c(C2=c3cc(Br)ccc3=NC2=O)s1 (centres undefined)", "readout.label": "growth", "scale.unit": "%", "experimental.result": 53.2}
{"compound": "CCOc1ccc(Nc2nc3ccccc3nc2Nc2ccc(OCC)cc2)cc1", "readout.label": "growth", "scale.unit": "%", "experimental.result": 19.8}
{"compound": "C=C(C)[C@@H]1CC[C@]2(COP(=O)(OCC)OCC)CC[C@]3(C)[C@H](CC[C@@H]4[C@@](C)(CCCN)[C@H](C(=C)C)CC[C@]43C)[C@@H]12", "readout.label": "growth", "scale.unit": "%", "experimental.result": 13.1}
{"compound": "O=c1oc2ccc(-c3ccc(F)cc3F)cc2c(=O)n1-c1ccc(F)cc1", "readout.label": "growth", "scale.unit": "%", "experimental.result": 0.638}
{"compound": "OCCCNc1oc(-c2ccccc2)nc1[P+](c1ccccc1)(c1ccccc1)c1ccccc1", "readout.label": "growth", "scale.unit": "%", "experimental.result": 9.56}
{"compound": "N#Cc1c(-c2ccc(F)cc2)nc(SCc2ccc(F)cc2)nc1N1CCOCC1", "readout.label": "growth", "scale.unit": "%", "experimental.result": 71.6}
{"compound": "COc1cccc2nc(Nc3cccc(NC(=O)c4ccc(CN5CCCN(C)CC5)c(C(F)(F)F)c4)c3)ccc12", "readout.label": "growth", "scale.unit": "%", "experimental.result": -69.8}
{"compound": "O=[N+]([O-])c1ccc(-c2nc(-c3ccccc3)c(-c3ccccc3)n2-c2ccc(S(=O)(=O)Nc3ncccn3)cc2)cc1", "readout.label": "growth", "scale.unit": "%", "experimental.result": 29.7}
{"compound": "O=C(CS(=O)(=O)c1oc(-c2ccc(Cl)cc2)nc1S(=O)(=O)c1ccc(Cl)cc1)N1CCOCC1", "readout.label": "growth", "scale.unit": "%", "experimental.result": 63.3}
{"compound": "O=C(Nc1ccc(Cl)c([N+](=O)[O-])c1)Nc1ccc(Cl)c([N+](=O)[O-])c1", "readout.label": "growth", "scale.unit": "%", "experimental.result": 10.4}
{"compound": "Oc1ccc(/C=C2\\CCCc3cc4ccc(O)cc4[o+]c32)c(O)c1", "readout.label": "growth", "scale.unit": "%", "experimental.result": 28.8}
{"compound": "Cc1ccc(/C(CSc2nnc(-c3c[nH]c4ccccc34)n2-c2ccccc2)=N/O)cc1", "readout.label": "growth", "scale.unit": "%", "experimental.result": -46.5}
{"compound": "COc1cc(/C=C/C(=O)c2ccc(NC(=O)CSc3nnc(-c4c[nH]c5ccccc45)n3-c3ccccc3)cc2)cc(OC)c1OC", "readout.label": "growth", "scale.unit": "%", "experimental.result": 65.6}
{"compound": "O=C1CCC(N2Cc3c(NCc4ccc(-c5ccccc5)cc4)cccc3C2=O)C(=O)N1 (centres undefined)", "readout.label": "growth", "scale.unit": "%", "experimental.result": 50.4}
{"compound": "Cc1ccc2nc(COc3ccc(C(=O)NNC(=S)NC(=O)c4ccccc4)cc3)[nH]c2c1", "readout.label": "growth", "scale.unit": "%", "experimental.result": 50.2}
{"compound": "C=C(C)[C@@H]1CC[C@]2(C(=O)OC)CC[C@]3(C)[C@H](CC[C@@H]4[C@@]5(C)CC[C@H](N)C(C)(C)[C@@H]5CC[C@]43C)[C@@H]12", "readout.label": "growth", "scale.unit": "%", "experimental.result": -28.2}
{"compound": "COc1ccc(-c2ccc(SCC(=O)Nc3ccc(C#N)cc3)nn2)cc1", "readout.label": "growth", "scale.unit": "%", "experimental.result": 85}
{"compound": "CCOC(=O)C1=C(N)N(c2ccc(Cl)cc2)C2=C(C(=O)CC(C)(C)C2)C1c1ccc(N2CCOCC2)cc1 (centres undefined)", "readout.label": "growth", "scale.unit": "%", "experimental.result": 92}
{"compound": "O=c1oc2ccc(-c3ccc(F)cc3F)cc2c(=O)n1-c1ccc(F)c(Cl)c1", "readout.label": "growth", "scale.unit": "%", "experimental.result": 5.69}
{"compound": "Cc1ccc(/C=C(\\C#N)n2nnc3c(F)cccc32)cc1", "readout.label": "growth", "scale.unit": "%", "experimental.result": 24.7}
{"compound": "Brc1ccc(N/N=C/c2c[nH]c3ccccc23)nc1", "readout.label": "growth", "scale.unit": "%", "experimental.result": 20}
{"compound": "CC(C)Sc1nc(NC2CC2)c(C#N)c(-c2ccccc2)n1", "readout.label": "growth", "scale.unit": "%", "experimental.result": 83}
{"compound": "O=C1N/C(=N\\c2nccs2)S/C1=C\\c1cccs1", "readout.label": "growth", "scale.unit": "%", "experimental.result": 41.3}

---

system: HT29 colon; test: NCI-60 one-dose screen, 48 h; conditions: 10 µM
Compounds without any hit were thinned out: in the full panel of roughly 83,000, 20% have a hit. The source made the active and inactive calls. Rule for the calls: active = growth percent below 10; inactive = the rest.
Outcomes: active, inactive

{"compound": "CCCCCc1ccc(S(=O)(=O)Nc2cc(-c3csc(N(C)C(C)=O)n3)ccc2N2CCN(C)CC2)cc1", "classification": "inactive"}
{"compound": "O=C(Cn1cc(CSc2nnc3oc4ccccc4n23)nn1)Nc1ccc(Br)cc1", "classification": "inactive"}
{"compound": "COc1ccccc1[C@H]1C(C(=O)c2ccc(Cl)cc2)C2(N[C@@H]1c1ccccc1)C(=O)Nc1ccccc12 (stereo not given in full)", "classification": "active"}
{"compound": "Cc1noc2c(Cc3ccc([N+](=O)[O-])cc3)nn(CC(=O)N/N=C/c3ccc(Cl)cc3)c(=O)c12", "classification": "inactive"}
{"compound": "Cc1cc2c(c(O)c1Br)-c1ncoc1C(=O)[C@]1(C)CC[C@H](C(C)C)[C@H]21", "classification": "active"}
{"compound": "O=C(NO)c1ccc(CNC(=O)[C@H]2Cc3c([nH]c4ccccc34)[C@H](c3ccc(Cl)cc3)N2)cc1", "classification": "inactive"}
{"compound": "COc1ccc(-c2ccc(SCC(=O)Nc3ccc(C#N)cc3)nn2)cc1", "classification": "inactive"}
{"compound": "COc1ccc(NC(=O)Nc2ccc(OCC(=O)N=Nc3c(O)[nH]c4ccc([N+](=O)[O-])cc34)cc2)cc1", "classification": "inactive"}
{"compound": "CCCSc1nc(NC2CC2)c(C#N)c(-c2ccc(OC)cc2)n1", "classification": "inactive"}
{"compound": "Cc1cccc(-c2nc(Nc3ccccc3C(=O)O)c3ccccc3n2)c1", "classification": "inactive"}
{"compound": "Cc1ccc(F)cc1N/C=c1\\s/c(=C(\\C#N)C(=O)Nc2ccccc2)n(-c2ccccc2)c1=O", "classification": "inactive"}
{"compound": "CCOC(=O)N/C(=C1/OCCN1C)[P+](c1ccccc1)(c1ccccc1)c1ccccc1", "classification": "inactive"}
{"compound": "Cc1cc(C)cc(Oc2cccc(-c3c(C)nnn3C3CCN(CCN(C)C)CC3)n2)c1", "classification": "inactive"}
{"compound": "CN1CCN(c2ccc(Nc3nc(NCCNC(=O)c4ccc(C(F)(F)F)cc4)c4sccc4n3)cc2)CC1", "classification": "active"}
{"compound": "CC(=O)Nc1ccc(-c2cn(-c3cccc(C(=O)Nc4cc(C(F)(F)F)cc(C(F)(F)F)c4)c3)nn2)cn1", "classification": "active"}
{"compound": "Cn1cc(-c2cc(N)n3nc(-c4c[nH]c5ccc(Br)cc45)cc3n2)c2cccnc21", "classification": "active"}
{"compound": "CN1CCN(Cc2ccc(C(=O)Nc3cccc(Nc4ccc5cc(O)ccc5n4)c3)cc2C(F)(F)F)CC1", "classification": "active"}
{"compound": "CC1(c2ccccc2)NC(=O)N(CC(=O)Nc2ccc(C(=O)/C=C/C=C/c3ccccc3)cc2)C1=O (stereo not given)", "classification": "inactive"}
{"compound": "Cc1ccc(-c2cc(C(=O)N=Nc3c(O)[nH]c4ccccc34)c3ccccc3n2)cc1", "classification": "inactive"}
{"compound": "Cc1ccc(-c2cc(-c3cc4ccccc4nc3Cl)[nH]c(=S)n2)cc1", "classification": "inactive"}
{"compound": "COC(=O)C[C@](O)(CCCC(C)(C)O)C(=O)O[C@H]1C(OC)=C[C@@]23CCC(=O)N2CCc2cc4c(cc2[C@@H]13)OCO4", "classification": "inactive"}
{"compound": "O=C1Nc2cc(-c3ccc(NC(=O)c4cccs4)cc3)ccc2/C1=C/c1ccc[nH]1", "classification": "inactive"}
{"compound": "COc1cc(/C=C/C(=O)c2ccc(NC(=O)CN3C(=O)NC(C)(c4ccccc4)C3=O)cc2)cc(OC)c1OC (stereo not given)", "classification": "active"}
{"compound": "COc1ccc(C=CC(=O)c2ccc(-n3c(C)nc4c(cnn4-c4ccccc4)c3=O)cc2)cc1", "classification": "inactive"}
{"compound": "CN1CCc2c(sc3ncnc(N/N=C/c4cn(-c5ccccc5)nc4-c4ccc(Br)cc4)c23)C1", "classification": "inactive"}
